Cited source for all entries: patent US8324245B2

Record form. Attribute: pIC50. Fill in for each entry.
Biological target: met (HGF receptor) in human gastric cancer cells MKN45 (Homo sapiens)
Construct: endogenous in cells
Sequence (P08581 25-1390): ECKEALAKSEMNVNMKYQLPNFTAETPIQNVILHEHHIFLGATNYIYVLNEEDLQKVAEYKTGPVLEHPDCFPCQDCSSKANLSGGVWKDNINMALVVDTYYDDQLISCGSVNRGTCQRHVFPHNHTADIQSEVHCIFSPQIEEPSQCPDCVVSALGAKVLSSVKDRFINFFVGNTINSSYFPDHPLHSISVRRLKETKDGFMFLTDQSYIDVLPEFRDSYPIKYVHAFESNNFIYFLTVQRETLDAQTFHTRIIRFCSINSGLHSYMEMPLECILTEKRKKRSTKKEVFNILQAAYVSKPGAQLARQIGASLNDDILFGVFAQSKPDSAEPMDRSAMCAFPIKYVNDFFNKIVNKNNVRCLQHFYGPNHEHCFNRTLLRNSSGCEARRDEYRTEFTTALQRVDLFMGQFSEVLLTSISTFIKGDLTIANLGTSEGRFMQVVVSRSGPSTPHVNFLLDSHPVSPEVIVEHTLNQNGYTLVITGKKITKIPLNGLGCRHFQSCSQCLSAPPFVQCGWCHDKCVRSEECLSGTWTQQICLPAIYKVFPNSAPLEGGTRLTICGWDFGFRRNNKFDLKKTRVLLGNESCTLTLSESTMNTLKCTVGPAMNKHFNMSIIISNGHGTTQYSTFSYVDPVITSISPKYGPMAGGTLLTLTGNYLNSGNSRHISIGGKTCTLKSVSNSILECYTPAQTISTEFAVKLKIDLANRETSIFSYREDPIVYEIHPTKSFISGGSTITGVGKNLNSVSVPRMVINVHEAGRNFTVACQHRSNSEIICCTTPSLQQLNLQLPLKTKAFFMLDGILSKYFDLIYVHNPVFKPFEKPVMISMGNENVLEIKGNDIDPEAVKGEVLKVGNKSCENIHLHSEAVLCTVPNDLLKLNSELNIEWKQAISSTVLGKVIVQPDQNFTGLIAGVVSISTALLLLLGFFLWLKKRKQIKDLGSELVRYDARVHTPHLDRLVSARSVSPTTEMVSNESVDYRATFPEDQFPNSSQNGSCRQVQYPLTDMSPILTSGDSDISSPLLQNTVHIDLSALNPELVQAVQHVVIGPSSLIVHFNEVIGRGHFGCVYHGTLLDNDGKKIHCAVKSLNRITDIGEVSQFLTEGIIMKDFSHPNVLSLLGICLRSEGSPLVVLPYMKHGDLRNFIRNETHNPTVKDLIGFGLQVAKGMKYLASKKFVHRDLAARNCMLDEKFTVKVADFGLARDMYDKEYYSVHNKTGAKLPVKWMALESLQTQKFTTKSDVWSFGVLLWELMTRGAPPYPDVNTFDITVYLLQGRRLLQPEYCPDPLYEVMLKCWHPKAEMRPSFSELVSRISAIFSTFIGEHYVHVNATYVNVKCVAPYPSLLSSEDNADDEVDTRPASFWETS
Assay: Inhibitory activity against met-autophosphorylation using ELISA method (2), MKN45 cells, HGF-independent
Please keep in mind that pIC50 is minus log10 of the molar concentration; only the number is needed.

Incoming: Respond only with pIC50 recorded for COc1cc2nccc(Oc3ccc(NC(=S)NC(=O)CCCCl)cc3F)c2cc1OC
Outgoing: 5.61

Incoming: State its pIC50: COc1cc2c(Oc3ccc(NC(=S)NC(=O)Cc4ccc(F)cc4)cc3F)ccnc2cc1OCCCN1CCC(CO)CC1
Outgoing: 7.68

Incoming: Assign pIC50 to the following record: COc1cc2nccc(Oc3ccc(NC(=O)C(C)(C)C(=O)Nc4ccccc4)cc3)c2cc1OC
Outgoing: 6.40

Incoming: Look up and report measured pIC50 for this entry: COc1cc2nccc(Oc3ccc(NC(=S)NC(=O)Cc4ccc(F)cc4F)c(F)c3)c2cc1OC
Outgoing: 6.92

Incoming: Look up pIC50 of COc1cc2nccc(Oc3ccc(NC(=S)NC(=O)Cc4cc(F)cc(F)c4)cc3F)c2cc1OC and report it.
Outgoing: 6.55

Incoming: // fetch pIC50 given entry COc1cc2nccc(Oc3ccc(NC(=S)NC(=O)Cc4cccc(C(F)(F)F)c4)c(F)c3)c2cc1OC
Outgoing: 6.19

Incoming: State its pIC50 for this molecule: COc1cc2nccc(Oc3ccc(NC(=O)CC(=O)Nc4ccc(F)cc4)cc3)c2cc1OC
Outgoing: 7.72

Incoming: Answer with the recorded pIC50 of COc1cc2nccc(Oc3ccc(NC(=S)NC(=O)Cc4cccc(C)c4)cc3F)c2cc1OC only.
Outgoing: 6.66

Incoming: Report pIC50, nothing else, for this molecule: COc1cc2nccc(Oc3ccc(NC(=O)CC(=O)Nc4ccc(F)cc4F)cc3Cl)c2cc1OC
Outgoing: 7.50

Incoming: Note down pIC50 recorded for COc1ccccc1CC(=O)NC(=S)Nc1ccc(Oc2ccnc3cc(OC)c(OC)cc23)cc1
Outgoing: 6.63

Incoming: For the molecule COc1cc2nccc(Oc3ccc(NC(=O)NC(=O)CN(C)C(C)C)cc3Cl)c2cc1OC , report pIC50.
Outgoing: 5.76

Incoming: Give reported pIC50 value for COc1cc2nccc(Oc3ccc(NC(=O)NC(=O)Cc4ccccc4)cc3)c2cc1OC
Outgoing: 7.12

Incoming: Give recorded pIC50. COc1cc2nccc(Oc3ccc(NC(=O)NC(=O)Cc4ccccc4)c(F)c3)c2cc1OC
Outgoing: 7.48

Incoming: Identify pIC50 associated with the molecule COc1cc2nccc(Oc3ccc(NC(=S)NC(=O)Cc4cccc(C)c4)cc3)c2cc1OC
Outgoing: 6.75

Incoming: Please indicate pIC50 recorded for COc1cc2nccc(Oc3ccc(NC(=S)NC(=O)CC4CCC(C)CC4)cc3F)c2cc1OC (centres unmarked)
Outgoing: 6.16

Incoming: Quickly give me recorded pIC50 for COc1cc2c(Oc3ccc(NC(=S)NC(=O)Cc4ccccc4)cc3F)ccnc2cc1OCC(O)CN1CCCCC1 (centres unmarked)
Outgoing: 7.66

Incoming: Please report pIC50 for the following molecule: COc1cc2nccc(Oc3ccc(NC(=S)NC(=O)Cc4ccc(C)cc4)cc3Cl)c2cc1OC
Outgoing: 7.13

Incoming: Tell me its pIC50 given COc1cc2nccc(Oc3ccc(NC(=O)NC(=O)Cc4ccccc4F)cc3Cl)c2cc1OC as the entry.
Outgoing: 6.79

Incoming: Indicate the recorded pIC50 value for this molecule: COc1cc2nccc(Oc3ccc(NC(=O)CC(=O)NC4CCCCCC4)cc3)c2cc1OC
Outgoing: 7.35

Incoming: Supply pIC50 value. Item: CCOCCC(=O)NC(=S)Nc1ccc(Oc2ccnc3cc(OC)c(OC)cc23)c(Cl)c1
Outgoing: 6.23

Incoming: Supply measured pIC50 of COc1cc2nccc(Oc3ccc(NC(=S)NC(=O)Cc4cc(F)cc(F)c4)c(F)c3)c2cc1OC in your reply.
Outgoing: 6.49

Incoming: Return pIC50 for the following molecule: COc1cc2nccc(Oc3ccc(NC(=O)NC(=O)Nc4ccc(Cl)cc4C)cc3)c2cc1OC
Outgoing: 6.07

Incoming: Using known records, supply pIC50 for COc1cc2nccc(Oc3ccc(NC(=O)NC(=O)Cc4cccs4)c(F)c3)c2cc1OC
Outgoing: 7.45

Incoming: Return value of pIC50 for input COc1cc2nccc(Oc3ccc(NC(=O)NC(=O)Nc4c(F)cccc4F)cc3)c2cc1OC , no commentary.
Outgoing: 6.59

Incoming: Report measured pIC50; entry is CCCCC(=O)NC(=O)Nc1ccc(Oc2ccnc3cc(OC)c(OC)cc23)c(Cl)c1
Outgoing: 5.83

Incoming: Report pIC50, nothing else, for this molecule: COc1cc2nccc(Oc3ccc(NC(=S)NC(=O)COc4ccccc4)cc3Cl)c2cc1OC
Outgoing: 6.32

Incoming: Give the measured pIC50 for COc1ccccc1NC(=O)CC(=O)Nc1ccc(Oc2ccnc3cc(OC)c(OC)cc23)cc1
Outgoing: 6.60

Incoming: Look up pIC50 of COc1cc2nccc(Oc3ccc(NC(=O)CC(=O)Nc4ccc(F)cc4F)cc3F)c2cc1OC and report it.
Outgoing: 7.59

Incoming: Report pIC50 for COc1cc2nccc(Oc3ccc(NC(=O)NC(=O)Nc4ccc5c(c4)OCCO5)cc3)c2cc1OC
Outgoing: 5.40

Incoming: State its pIC50 for this molecule: COc1cc2nccc(Oc3ccc(NC(=O)NC(=O)c4ccccc4C)c(F)c3)c2cc1OC
Outgoing: 5.68

Incoming: Note pIC50 for the molecule shown: COc1cc2nccc(Oc3ccc(NC(=O)NC(=O)Nc4cccc(C)c4)cc3)c2cc1OC
Outgoing: 6.55

Incoming: Look up and state reported pIC50 for COc1cc2c(Oc3ccc(NC(=S)NC(=O)Cc4cccc(F)c4)cc3F)ccnc2cc1OCCCN1CCOCC1
Outgoing: 7.62
